Target: human GPR40 (Homo sapiens, UniProt O14842)
Sequence (O14842 whole entry): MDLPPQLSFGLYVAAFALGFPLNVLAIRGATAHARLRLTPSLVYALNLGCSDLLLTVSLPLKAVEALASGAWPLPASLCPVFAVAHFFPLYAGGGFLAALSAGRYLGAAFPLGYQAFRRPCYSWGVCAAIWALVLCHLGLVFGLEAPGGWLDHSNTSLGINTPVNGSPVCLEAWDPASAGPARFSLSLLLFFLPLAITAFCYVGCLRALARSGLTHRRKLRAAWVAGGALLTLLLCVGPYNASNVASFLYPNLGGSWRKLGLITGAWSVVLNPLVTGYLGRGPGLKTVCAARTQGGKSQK
Assay: Cell-based aequorin assay using human GPR40
Conditions: activation of human GPR40; CHO cells transfected with GPR40 and aequorin expression vectors; aequorin luminescence, area-under-curve 2-20 seconds; read-out: Relative EC50
pEC50: −log10 of the molar value.
OBSERVED_PROPERTY: pEC50

input: What measured pEC50 goes with O=C(O)C[C@H](NC(=O)CCc1ccccc1)c1ccc(OCc2cccc(Oc3ccc(F)cc3)c2)cc1 [Compound 88.6] ?
output: < 5.00

input: What measured pEC50 goes with O=C(O)CC(c1ccccc1)c1ccc(OCc2cccc(Oc3ccccc3)c2)cc1 (centres unmarked) [Compound 84.1] ?
output: 7.00 to 8.00

input: What measured pEC50 goes with CC#CC(CC(=O)O)c1ccc(OCc2ccc(S(=O)(=O)c3ccccc3)cc2)cc1 (centres unmarked) [Compound 10.5] ?
output: 6.00 to 7.00

input: What measured pEC50 goes with CC#CC(CC(=O)O)c1ccc(OCc2cc(-c3ccccc3)no2)cc1 (centres unmarked) [Compound 77] ?
output: 6.00 to 7.00

input: What measured pEC50 goes with CC(C)(C)OC(=O)N[C@@H](CC(=O)O)c1ccc(OCc2cccc(Oc3ccc(F)cc3)c2)cc1 [Compound 42.11] ?
output: 6.00 to 7.00

input: What measured pEC50 goes with CC#CC(CC(=O)O)c1ccc(OCc2sc(-c3ccc(OC)c(OC)c3)nc2C)cc1 (centres unmarked) [Compound 9.4] ?
output: 7.00 to 8.00

input: What measured pEC50 goes with COc1ccc(COc2ccc(C(C#Cc3ccccc3)CC(=O)O)cc2)cc1 (centres unmarked) [Compound 14.6] ?
output: 5.00 to 6.00

input: What measured pEC50 goes with CC#CC(CC(=O)O)c1ccc(OCc2ccc(-c3cccnc3)cc2)cc1 (centres unmarked) [Compound 10.12] ?
output: 5.00 to 6.00

* * *

Target: human GPR40 (Homo sapiens, UniProt O14842)
Test: Cell-based aequorin assay using human GPR40
Details: activation of human GPR40; CHO cells transfected with GPR40 and aequorin expression vectors; aequorin luminescence, area-under-curve 2-20 seconds; read-out: Relative EC50
Catalogue of EC50 readings, one per entry.

input: Find the measured EC50: item CC#CC(CC(=O)O)c1ccc(OCc2cccc(-c3ccc(OCC)cc3)c2)cc1 (centres unmarked) [Compound 6.3] , target or system human GPR40 (Homo sapiens, UniProt O14842).
output: 0.01 to 0.1 µM

input: Find the measured EC50: item CC#CC(CC(=O)O)c1ccc(OCc2ccc(Cc3ccccc3)cc2)cc1 (centres unmarked) [Compound 10.6] , target or system human GPR40 (Homo sapiens, UniProt O14842).
output: 0.01 to 0.1 µM

input: Find the measured EC50: item CC#C[C@@H](CC(=O)O)c1ccc(OCc2cc(-c3ccccc3)oc2C)cc1 [Compound 5] , target or system human GPR40 (Homo sapiens, UniProt O14842).
output: 0.01 to 0.1 µM

input: Find the measured EC50: item CC#CC(CC(=O)O)c1ccc(OCc2cccc(-n3cccc3)c2)cc1 (centres unmarked) [Compound 10.14] , target or system human GPR40 (Homo sapiens, UniProt O14842).
output: 0.01 to 0.1 µM

input: Find the measured EC50: item COc1ccc(C(CC(=O)O)c2ccc(OCc3cccc(Oc4ccccc4)c3)cc2)cc1 (centres unmarked) [Compound 84.7] , target or system human GPR40 (Homo sapiens, UniProt O14842).
output: 0.1 to 1 µM

input: Find the measured EC50: item CC#CC(CC(=O)Nc1nccs1)c1ccc(OCc2ccc(OC)cc2)cc1 (centres unmarked) [Compound 24] , target or system human GPR40 (Homo sapiens, UniProt O14842).
output: 0.1 to 1 µM

input: Find the measured EC50: item CC#C[C@H](CC(=O)O)c1ccc(OCc2ccc(OC)cc2)cc1 [Compound 40.5] , target or system human GPR40 (Homo sapiens, UniProt O14842).
output: 1 to 10 µM

input: Find the measured EC50: item Cc1cnc(C(CC(=O)O)c2ccc(OCc3cccc(-c4ccc(C(F)(F)F)cc4)c3)cc2)s1 (centres unmarked) [Compound 70.1] , target or system human GPR40 (Homo sapiens, UniProt O14842).
output: 1 to 10 µM
